test system: E. faecalis VRE 53; test: MIC, broth microdilution, vancomycin-resistant E. faecalis VRE 53 (VanA); format: cell-based, Enterococcus faecalis; conditions: Enterococcus faecalis VRE 53 (vancomycin-resistant); read-out: MIC
# MIC annotations
Express the result in µM but write the number alone.

query: Consider the molecule CNC(CC(C)C)C(=O)NC1C(=O)NC(CC(N)=O)C(=O)NC2C(=O)NC3C(=O)NC(C(=O)NC(C(=O)NCCCNC(=O)c4ccc5cc(NS(=O)(=O)c6ccccc6)ccc5c4)c4cc(O)cc(O)c4-c4cc3ccc4O)C(O)c3ccc(c(Cl)c3)Oc3cc2cc(c3OC2OC(CO)C(O)C(O)C2OC2CC(C)(N)C(O)C(C)O2)Oc2ccc(cc2Cl)C1O (stereo not drawn) and give its measured MIC.
result: 25

query: Next molecule up: C#Cc1ccc(C=Cc2ccc(NC(=O)CNC(=O)C3NC(=O)C4NC(=O)C(NC(=O)C5NC(=O)C(CC(N)=O)NC(=O)C(NC(=O)C(CC(C)C)NC)C(O)c6ccc(c(Cl)c6)Oc6cc5cc(c6OC5OC(CO)C(O)C(O)C5OC5CC(C)(N)C(O)C(C)O5)Oc5ccc(cc5Cl)C4O)c4ccc(O)c(c4)-c4c(O)cc(O)cc43)cc2)cc1 (stereo not drawn)
result: 6.25

query: Next molecule up: `CN[C@H](CC(C)C)C(=O)N[C@H]1C(=O)N[C@@H](CC(N)=O)C(=O)N[C@H]2C(=O)N[C@H]3C(=O)N[C@H](C(=O)N[C@H](C(=O)NCC(=O)Nc4ccc(Oc5ccccc5)cc4)c4cc(O)cc(O)c4-c4cc3ccc4O)[C@H](O)c3ccc(c(Cl)c3)Oc3cc2cc(c3O[C@@H]2O[C@H](CO)[C@@H](O)[C@H](O)[C@H]2O[C@H]2C[C@](C)(N)[C@H](O)[C@H](C)O2)Oc2ccc(cc2Cl)[C@H]1O`
result: 6.25

---

# IC50 annotations
tested on: L1210, CEM and HeLa cell lines; assay: Cytostatic activity, average or summary over L1210, CEM and HeLa; assay type: cell-based; conditions: average of L1210, CEM and HeLa; read-out: Toxicity (IC50) Average
Express the result in µM but write the number alone.

query: Requested read-out IC50, target or system L1210, CEM and HeLa cell lines, entry `CN[C@H](CC(C)C)C(=O)N[C@H]1C(=O)N[C@@H](CC(N)=O)C(=O)N[C@H]2C(=O)N[C@H]3C(=O)N[C@H](C(=O)N[C@H](C(=O)NCCNC(=O)/C=C/c4ccc(NS(=O)(=O)c5ccc(C(C)C)cc5)cc4)c4cc(O)cc(O)c4-c4cc3ccc4O)[C@H](O)c3ccc(c(Cl)c3)Oc3cc2cc(c3O[C@@H]2O[C@H](CO)[C@@H](O)[C@H](O)[C@H]2O[C@H]2C[C@](C)(N)[C@H](O)[C@H](C)O2)Oc2ccc(cc2Cl)[C@H]1O`
result: 201

query: Next compound up: `CN[C@H](CC(C)C)C(=O)N[C@H]1C(=O)N[C@@H](CC(N)=O)C(=O)N[C@H]2C(=O)N[C@H]3C(=O)N[C@H](C(=O)N[C@H](C(=O)NCCNC(=O)/C=C/c4ccc(Cl)cc4Cl)c4cc(O)cc(O)c4-c4cc3ccc4O)[C@H](O)c3ccc(c(Cl)c3)Oc3cc2cc(c3O[C@@H]2O[C@H](CO)[C@@H](O)[C@H](O)[C@H]2O[C@H]2C[C@](C)(N)[C@H](O)[C@H](C)O2)Oc2ccc(cc2Cl)[C@H]1O`
result: 89

---

# MIC annotations
test system: E. faecalis VRE 53; assay: MIC, broth microdilution, vancomycin-resistant E. faecalis VRE 53 (VanA); assay type: cell-based, Enterococcus faecalis; conditions: Enterococcus faecalis VRE 53 (vancomycin-resistant); read-out: MIC
Express the result in µM but write the number alone.

1. CN[C@H](CC(C)C)C(=O)N[C@H]1C(=O)N[C@@H](CC(N)=O)C(=O)N[C@H]2C(=O)N[C@H]3C(=O)N[C@H](C(=O)N[C@H](C(=O)NCCNC(=O)/C=C/c4ccc(NS(=O)(=O)c5ccc(C)cc5)cc4)c4cc(O)cc(O)c4-c4cc3ccc4O)[C@H](O)c3ccc(c(Cl)c3)Oc3cc2cc(c3O[C@@H]2O[C@H](CO)[C@@H](O)[C@H](O)[C@H]2O[C@H]2C[C@](C)(N)[C@H](O)[C@H](C)O2)Oc2ccc(cc2Cl)[C@H]1O = 12.5

query: Consider the molecule CCCCCn1cc(-c2ccc(NC(=O)CNC(=O)C3NC(=O)C4NC(=O)C(NC(=O)C5NC(=O)C(CC(N)=O)NC(=O)C(NC(=O)C(CC(C)C)NC)C(O)c6ccc(c(Cl)c6)Oc6cc5cc(c6OC5OC(CO)C(O)C(O)C5OC5CC(C)(N)C(O)C(C)O5)Oc5ccc(cc5Cl)C4O)c4ccc(O)c(c4)-c4c(O)cc(O)cc43)cc2)nn1 (centres unmarked) and give its measured MIC.
result: 25

---

# MIC-fold improvement vs. vancomycin annotations
system: MRSA KS1; assay: MIC, broth microdilution, MRSA KS1; assay type: cell-based, Staphylococcus aureus; details: MRSA KS1; ratio of MIC of vancomycin and MIC of analogue

1) CCc1ccc(NC(=O)CNC(=O)[C@H]2NC(=O)[C@H]3NC(=O)[C@H](NC(=O)[C@@H]4NC(=O)[C@H](CC(N)=O)NC(=O)[C@H](NC(=O)[C@@H](CC(C)C)NC)[C@H](O)c5ccc(c(Cl)c5)Oc5cc4cc(c5O[C@@H]4O[C@H](CO)[C@@H](O)[C@H](O)[C@H]4O[C@H]4C[C@](C)(N)[C@H](O)[C@H](C)O4)Oc4ccc(cc4Cl)[C@H]3O)c3ccc(O)c(c3)-c3c(O)cc(O)cc32)cc1 [Vanc-13] = 2

query: Consider the compound CCCCCn1cc(-c2ccc(NC(=O)CNC(=O)C3NC(=O)C4NC(=O)C(NC(=O)C5NC(=O)C(CC(N)=O)NC(=O)C(NC(=O)C(CC(C)C)NC)C(O)c6ccc(c(Cl)c6)Oc6cc5cc(c6OC5OC(CO)C(O)C(O)C5OC5CC(C)(N)C(O)C(C)O5)Oc5ccc(cc5Cl)C4O)c4ccc(O)c(c4)-c4c(O)cc(O)cc43)cc2)nn1 (centres unmarked) [Vanc-91] and give its measured MIC-fold improvement vs. vancomycin.
result: 8

---

tested on: E. faecalis VRE 53; experiment: MIC, broth microdilution, vancomycin-resistant E. faecalis VRE 53 (VanA); format: cell-based, Enterococcus faecalis; conditions: Enterococcus faecalis VRE 53 (vancomycin-resistant); read-out: MIC
READOUT KIND: MIC (µM)
Express the result in µM but write the number alone.

Below: 2 compounds and their reported MIC.
1) CN[C@H](CC(C)C)C(=O)N[C@H]1C(=O)N[C@@H](CC(N)=O)C(=O)N[C@H]2C(=O)N[C@H]3C(=O)N[C@H](C(=O)N[C@H](C(=O)NCCNC(=O)/C=C/c4ccc(NS(=O)(=O)c5ccccc5)cc4)c4cc(O)cc(O)c4-c4cc3ccc4O)[C@H](O)c3ccc(c(Cl)c3)Oc3cc2cc(c3O[C@@H]2O[C@H](CO)[C@@H](O)[C@H](O)[C@H]2O[C@H]2C[C@](C)(N)[C@H](O)[C@H](C)O2)Oc2ccc(cc2Cl)[C@H]1O = 25
2) CN[C@H](CC(C)C)C(=O)N[C@H]1C(=O)N[C@@H](CC(N)=O)C(=O)N[C@H]2C(=O)N[C@H]3C(=O)N[C@H](C(=O)N[C@H](C(=O)NCC(=O)Nc4ccc(Nc5ccccc5)cc4)c4cc(O)cc(O)c4-c4cc3ccc4O)[C@H](O)c3ccc(c(Cl)c3)Oc3cc2cc(c3O[C@@H]2O[C@H](CO)[C@@H](O)[C@H](O)[C@H]2O[C@H]2C[C@](C)(N)[C@H](O)[C@H](C)O2)Oc2ccc(cc2Cl)[C@H]1O = 25

query: Consider the compound CCc1cccc(C)c1NC(=O)CNC(=O)C1NC(=O)C2NC(=O)C(NC(=O)C3NC(=O)C(CC(N)=O)NC(=O)C(NC(=O)C(CC(C)C)NC)C(O)c4ccc(c(Cl)c4)Oc4cc3cc(c4OC3OC(CO)C(O)C(O)C3OC3CC(C)(N)C(O)C(C)O3)Oc3ccc(cc3Cl)C2O)c2ccc(O)c(c2)-c2c(O)cc(O)cc21 (stereo not drawn) and give its measured MIC.
result: 25

---

# IC50 annotations
system: human cervix carcinoma (HeLa) cells; assay: Cytostatic activity, HeLa cell proliferation; format: cell-based; conditions: mean ± SD of three experiments; highest concentration tested 250 µM; 4 days; read-out: Toxicity (IC50) HeLa
Express the result in µM but write the number alone.

1) CNC(CC(C)C)C(=O)NC1C(=O)NC(CC(N)=O)C(=O)NC2C(=O)NC3C(=O)NC(C(=O)NC(C(=O)NCC(=O)Nc4cccc(OC)c4)c4cc(O)cc(O)c4-c4cc3ccc4O)C(O)c3ccc(c(Cl)c3)Oc3cc2cc(c3OC2OC(CO)C(O)C(O)C2OC2CC(C)(N)C(O)C(C)O2)Oc2ccc(cc2Cl)C1O (stereo not drawn) = 194

query: Requested read-out IC50, target or system human cervix carcinoma (HeLa) cells, entry `CN[C@H](CC(C)C)C(=O)N[C@H]1C(=O)N[C@@H](CC(N)=O)C(=O)N[C@H]2C(=O)N[C@H]3C(=O)N[C@H](C(=O)N[C@H](C(=O)NCCNC(=O)/C=C/c4ccc(C)cc4)c4cc(O)cc(O)c4-c4cc3ccc4O)[C@H](O)c3ccc(c(Cl)c3)Oc3cc2cc(c3O[C@@H]2O[C@H](CO)[C@@H](O)[C@H](O)[C@H]2O[C@H]2C[C@](C)(N)[C@H](O)[C@H](C)O2)Oc2ccc(cc2Cl)[C@H]1O`
result: 176
